- System: PC-3 prostate
- measurement-description: NCI tumour cell line growth inhibition, 48 h
measure-name: TGI

Example results:
CC(C)[C@@H]1ON1C(C)c1ccccc1 (stereo not given in full): > 100 µM
CCC(c1c[nH]c2ccc(Br)cc12)c1c[nH]c2ccc(Br)cc12: 17.1 µM
Nc1ccc(-c2nc3ccccc3[nH]2)c2ccccc12: > 100 µM
C[C@@H]1O[C@@H](OC[C@H]2O[C@@H](OCCc3ccc(O)c(O)c3)[C@H](O)[C@@H](O)[C@@H]2OC(=O)/C=C/c2ccc(O)c(O)c2)[C@H](O)[C@H](O)[C@H]1O: > 100 µM
CC(C)CN=C(N)N=C(N)N: > 100 µM
CCN(CC)Cc1sc2nc3ccccc3n2c1-c1ccc(OC)cc1: > 100 µM
CSCCC(NC(=O)Cc1ccc(C(=O)c2ccccc2)cc1)C(=O)O (stereo not given): > 100 µM
COc1ccc(OC)c(C2SCC(=O)N2NC(=O)C(O)c2ccccc2)c1 (stereo not given): > 100 µM
CC(C)=CCC/C(C)=C/CC/C(C)=C/CC/C=C(\C)CC/C=C(\C)CCC(=O)Nc1ccn(C2OC(CO)C(O)C2(F)F)c(=O)n1 (stereo not given): 20.5 µM

Look up TGI for this molecule: Nc1ccccc1SCc1csc(-c2ccc(Cl)cc2)n1
> 71.5 µM

* * *

- System: EKVX NSCLC
- measurement-description: NCI tumour cell line growth inhibition, 48 h
Measured TGI of individual entries
Report the figure in µM without appending any unit label.

CC1=NN(C(=O)CSc2nc3ccc(I)cc3c(=O)n2Cc2ccccc2)C(=O)C1: 79.8

Look up TGI for this compound: CCCCn1c(=O)c2c(nc3n2CCCN3CCc2ccc(OCC(=O)NCCN(CC)CC)cc2)n(CCCC)c1=O
11.7

Look up TGI for this compound: Cc1nc2ccccc2c(/C=C/c2ccc(Br)cc2)c1C(=O)/C=C/c1ccccc1
3.32

Look up TGI for this compound: C[C@@H]1O[C@@H](O[C@H]2CC[C@@]3(C)[C@H](CCC4[C@@H]3C(O)C[C@]3(C)[C@@H](c5ccc(=O)oc5)CC[C@]43O)C2)[C@H](O)[C@H](O)[C@H]1O (stereo partly drawn)
0.00766

* * *

Measured TGI of individual entries
- Test system: OVCAR-8 ovarian
- measurement-description: NCI tumour cell line growth inhibition, 48 h
Where a SMILES comes first, the peptide text is derived from it. [ ]: non-standard residue; d: D form. The star is where a group is joined. mTyr = N[CH](Cc1cccc(O)c1)C(=O)O; Cbz = O=C(OCc1ccccc1)*; OBn = c1ccc(CO*)cc1

Example results:
C#CCOc1cccc(Nc2ncnc3c(NC(=O)CCl)cccc23)c1: > 100 µM
Cc1ccc(CC(C)N)cc1 (stereo unspecified): > 100 µM
[N-]=[N+]=C1C(=O)C2CC3CC(C2)CC1C3: > 100 µM
COC(CN1C=C(Sc2ccccc2)CC1)OC: 86.9 µM
CC(C)C1=CC23CCC4C(C)(C(=O)O)CCCC4(C)C2CC1C1C(=O)N(c2ccc(C(=O)O)cc2)C(=O)C13 (stereo unspecified): > 100 µM

Look up TGI for this molecule: CCN(CC)CCNCc1cc(Cl)cc2c1OCOC2
> 10 µM

Look up TGI for this molecule: CCOc1nc(N)nc(C)c1N=Nc1ccc(Cl)cc1
> 100 µM

Look up TGI for this molecule: CN(CCCNC(=O)c1nn(-c2ccc(Cl)cc2Cl)c2c1Cc1ccccc1-2)CCCNC(=O)c1nn(-c2ccc(Cl)cc2Cl)c2c1Cc1ccccc1-2
3.46 µM

Look up TGI for this molecule: COC(=O)C(Cc1cccc(O)c1)NC(=O)C(CC(=O)OCc1ccccc1)NC(=O)OCc1ccccc1 (stereo unspecified) (Cbz-Asp(OBn)-[mTyr]-OMe; configuration not given here)
> 100 µM

Look up TGI for this molecule: COc1nc(N)c(N=CC(OC(C)=O)C(OC(C)=O)C(COC(C)=O)OC(C)=O)c(=O)n1C (stereo unspecified)
> 100 µM

* * *

- Tested on: NCI/ADR-RES ovarian
- measurement-description: NCI tumour cell line growth inhibition, 48 h
measure-name: TGI

Example results:
CCOc1cc(NC(C)=O)ccc1C(=O)NN1C(=O)C(Cl)C1c1ccco1 (configuration not stated): > 100 µM
C[C@@H]1O[C@@H](O[C@H]2CC[C@@]3(C)[C@H](CCC4[C@@H]3C(O)C[C@]3(C)[C@@H](c5ccc(=O)oc5)CC[C@]43O)C2)[C@H](O)[C@H](O)[C@H]1O (some centres not stated): 0.00578 µM
CC(C)(C)c1cc(C2COC(c3cc(C(C)(C)C)c(O)c(C(C)(C)C)c3)CO2)cc(C(C)(C)C)c1O (configuration not stated): > 100 µM
C[C@@H]1O[C@@H](OC[C@H]2O[C@@H](OCCc3ccc(O)c(O)c3)[C@H](O)[C@@H](O)[C@@H]2OC(=O)/C=C/c2ccc(O)c(O)c2)[C@H](O)[C@H](O)[C@H]1O: > 100 µM
CCN1C(=O)N(CC)C2C1NN=c1s/c(=C\c3ccccc3Br)c(=O)n12 (configuration not stated): 15.3 µM

Query molecule follows.
Look up TGI for this molecule: CCOc1nc(N)nc(C)c1N=Nc1ccc(Cl)cc1
> 100 µM

* * *

- Tested on: SW-620 colon
- measurement-description: NCI tumour cell line growth inhibition, 48 h; in the data active means GI50 below about 0.43 µM; inactive means the rest
Field 'call' accepts class 1 for active, class 0 for inactive

These recorded examples may help you get a feel for the data.
COc1ccc(C(=O)N2c3ccccc3Sc3ccccc32)c(OC)c1: class 1
CC(=O)Oc1ccccc1C(=O)/C=C/c1cccc([N+](=O)[O-])c1: class 0
CC1=CC(=O)C(O)C2(C)C1CC(O)C13COC4(C)C(OC(=O)C41)C(O)C23 (centres undefined): class 0

Here's the next entry for you.
I'd appreciate the recorded outcome for C[C@@H]1O[C@@H](OC[C@H]2O[C@@H](OCCc3ccc(O)c(O)c3)[C@H](O)[C@@H](O)[C@@H]2OC(=O)/C=C/c2ccc(O)c(O)c2)[C@H](O)[C@H](O)[C@H]1O from this test.
class 0

* * *

- System: SK-MEL-28 melanoma
- measurement-description: NCI tumour cell line growth inhibition, 48 h
measure-name: TGI (µM)
Report the figure in µM without appending any unit label.

CC(C)(C)CN1CCn2c(nc3c(N)nccc32)S1: 29.7
CN(C)CCCN1c2ccccc2CCc2ccc([N+](=O)[O-])cc21: 77.9

Query molecule follows.
Look up TGI for this molecule: BrCc1ccc(CBr)cc1
23.3

* * *

- Test system: HS 578T breast
- measurement-description: NCI tumour cell line growth inhibition, 48 h
Measured TGI of individual entries

Example results:
Nc1ccc(CCN2CCN(CCCc3ccccc3)CC2)cc1: > 100 µM
Brc1ccc(-c2cn3ccncc3n2)cc1: > 100 µM

Query compound follows.
Look up TGI for this compound: CC1=CC(=O)C(O)C2(C)C1CC(O)C13COC4(C)C(OC(=O)C41)C(O)C23 (stereo unspecified)
57.2 µM

* * *

Measured GI50 of individual entries
- Test system: ACHN renal
- measurement-description: NCI tumour cell line growth inhibition, 48 h

Look up GI50 for this compound: O=c1[nH]cnc2c(C3NC(CO)C(O)C3O)c[nH]c12 (stereo not given)
> 100 µM

Look up GI50 for this compound: C[C@@H]1O[C@@H](OC[C@H]2O[C@@H](OCCc3ccc(O)c(O)c3)[C@H](O)[C@@H](O)[C@@H]2OC(=O)/C=C/c2ccc(O)c(O)c2)[C@H](O)[C@H](O)[C@H]1O
> 100 µM

Look up GI50 for this compound: CCn1c2ccccc2c2cc(/C=C(/C#N)C(N)=O)ccc21
> 76 µM

Look up GI50 for this compound: CC(C)=CCC/C(C)=C/CC/C(C)=C/CC/C=C(\C)CC/C=C(\C)CCC(=O)Nc1ccn(C2OC(CO)C(O)C2(F)F)c(=O)n1 (stereo not given)
0.0266 µM

Look up GI50 for this compound: C[C@@H]1O[C@@H](O[C@H]2CC[C@@]3(C)[C@H](CCC4[C@@H]3C(O)C[C@]3(C)[C@@H](c5ccc(=O)oc5)CC[C@]43O)C2)[C@H](O)[C@H](O)[C@H]1O (stereo not given in full)
< 0.00325 µM

Look up GI50 for this compound: COc1ccc(/C=N/NC(=O)Cn2c(-c3ccc(S(C)(=O)=O)cc3)nc3cc(Cl)ccc32)cc1
2.13 µM

Look up GI50 for this compound: O=C([CH-]C(=O)c1ccccc1)c1ccccc1.O=C([CH-]C(=O)c1ccccc1)c1ccccc1.[OH-].[OH-].[Ti+4]
> 100 µM

Look up GI50 for this compound: COc1cc2c(c(OC)c1OC)-c1ccc(SC)c(=O)cc1[C@@H](NC1OC(CO)C(O)C(O)C1O)CC2 (stereo not given in full)
0.0744 µM

Look up GI50 for this compound: COc1ccc2cc(-c3c(-c4ccncc4)nc(-c4ccc(S(C)=O)cc4)n3C)ccc2c1 (stereo not given)
20.2 µM

Look up GI50 for this compound: COc1ccc(OC)c(C2SCC(=O)N2NC(=O)C(O)c2ccccc2)c1 (stereo not given)
> 100 µM

Look up GI50 for this compound: O=[N+]([O-])c1cc(S(=O)(=O)Oc2ccccc2)ccc1Cl
3.22 µM

Look up GI50 for this compound: N#CN1CC[C@H](C(=O)Nc2ncc(-c3ccncc3)s2)C1
0.0348 µM

Look up GI50 for this compound: Cn1cc(-c2nonc2-c2cn(C)c3ccccc23)c2ccccc21
1.47 µM

Look up GI50 for this compound: COC(=O)c1nc(-c2ccccc2)oc1S(=O)(=O)n1nc(C)cc1N
1.71 µM

Look up GI50 for this compound: COC1O[C@@H]2C[C@H]3C(C)(C)CCC[C@]3(C)C3=CCCC1[C@@]32C (stereo not given in full)
> 100 µM

Look up GI50 for this compound: N#Cc1ccc(N=Cc2c([O-])ccc3ccccc23)cc1.[C-]#[O+].[C-]#[O+].[Ir]
6.32 µM

Look up GI50 for this compound: CC1OC(O[C@H]2/C=C/C=C/C=C/C=C/C=C/C=C/C=C/[C@H](C)[C@@H](O)[C@@H](C)[C@H](C)OC(=O)CC(O)CC(O)CCC(O)C(O)CC(O)C[C@]3(O)C[C@H](O)C(C(=O)O)C(C2)O3)C(O)[C@H](N)C1O (stereo not given in full)
1.68 µM

Look up GI50 for this compound: C[CH2][Pb]([CH2]C)([CH2]C)[O]C(=O)c1ccc2ccccc2n1
> 10 µM

Look up GI50 for this compound: Nc1ccc(-c2nc3ccccc3[nH]2)c2ccccc12
8.41 µM

Look up GI50 for this compound: COc1ccc2c(c1OC)C(=O)OC2C1c2c(c([N+](=O)[O-])c3c(c2OC)OCO3)CCN1C (stereo not given)
> 100 µM

Data origin, for the record: PubChem BioAssay (NCI)
